Please consider the recorded log10 Ki for Neuraminidase (Influenza A virus (A/Puerto Rico/8/1934(H1N1)), UniProt P03468) in what follows.
measurement label: log10 Ki (log10 of the value in nM)

[
  {
    "input smiles": "COc1cc(CN2CCN(c3ccc(C(F)(F)F)cc3)CC2)c2cc3[n+](cc2c1O)CCc1cc2c(cc1-3)OCO2.[Cl-]",
    "log10 Ki": 3.20
  },
  {
    "input smiles": "COc1cc(CN2CCN(c3ccccc3Cl)CC2)c2cc3[n+](cc2c1O)CCc1cc2c(cc1-3)OCO2.[Cl-]",
    "log10 Ki": 3.42
  },
  {
    "input smiles": "COc1cc(CN2CCN(c3ccc(F)cc3)CC2)c2cc3[n+](cc2c1O)CCc1cc2c(cc1-3)OCO2.[Cl-]",
    "log10 Ki": 2.68
  },
  {
    "input smiles": "COc1cc(CN2CCN(c3ccc(C)cc3)CC2)c2cc3[n+](cc2c1O)CCc1cc2c(cc1-3)OCO2.[Cl-]",
    "log10 Ki": 2.46
  },
  {
    "input smiles": "COc1cc(CN2CCN(c3ccc(OC(F)(F)F)cc3)CC2)c2cc3[n+](cc2c1O)CCc1cc2c(cc1-3)OCO2.[Cl-]",
    "log10 Ki": 2.69
  },
  {
    "input smiles": "COc1ccc2cc3[n+](cc2c1OC)CCc1cc2c(cc1-3)OCO2",
    "log10 Ki": 4.16
  },
  {
    "input smiles": "COc1cc(CN2CCCCC2)c2cc3[n+](cc2c1O)CCc1cc2c(cc1-3)OCO2.[Cl-]",
    "log10 Ki": 2.83
  },
  {
    "input smiles": "COc1cc(CN2CCN(c3ccc([N+](=O)[O-])cc3)CC2)c2cc3[n+](cc2c1O)CCc1cc2c(cc1-3)OCO2.[Cl-]",
    "log10 Ki": 3.12
  },
  {
    "input smiles": "COc1cc(CN2CCN(c3ccc4ccccc4c3)CC2)c2cc3[n+](cc2c1O)CCc1cc2c(cc1-3)OCO2.[Cl-]",
    "log10 Ki": 2.38
  },
  {
    "input smiles": "COc1cc(CN2CCN(C(c3ccccc3)c3ccccc3)CC2)c2cc3[n+](cc2c1O)CCc1cc2c(cc1-3)OCO2.[Cl-]",
    "log10 Ki": 2.69
  },
  {
    "input smiles": "COc1cc(CN2CCN(c3ccccc3F)CC2)c2cc3[n+](cc2c1O)CCc1cc2c(cc1-3)OCO2.[Cl-]",
    "log10 Ki": 3.72
  },
  {
    "input smiles": "COc1cc(CN2CCN(c3cccc(Cl)c3Cl)CC2)c2cc3[n+](cc2c1O)CCc1cc2c(cc1-3)OCO2.[Cl-]",
    "log10 Ki": 2.54
  },
  {
    "input smiles": "COc1cc(CN2CCN(c3ccc(F)cc3F)CC2)c2cc3[n+](cc2c1O)CCc1cc2c(cc1-3)OCO2.[Cl-]",
    "log10 Ki": 2.61
  },
  {
    "input smiles": "COc1cc(CN2CCN(c3ncccn3)CC2)c2cc3[n+](cc2c1O)CCc1cc2c(cc1-3)OCO2.[Cl-]",
    "log10 Ki": 1.85
  },
  {
    "input smiles": "COc1cc(CN2CCN(c3ccccn3)CC2)c2cc3[n+](cc2c1O)CCc1cc2c(cc1-3)OCO2.[Cl-]",
    "log10 Ki": 2.23
  },
  {
    "input smiles": "COc1cc(CN2CCN(c3ccc(C)cc3C)CC2)c2cc3[n+](cc2c1O)CCc1cc2c(cc1-3)OCO2.[Cl-]",
    "log10 Ki": 2.62
  },
  {
    "input smiles": "COc1cc(CN2CCN(c3ccccc3[N+](=O)[O-])CC2)c2cc3[n+](cc2c1O)CCc1cc2c(cc1-3)OCO2.[Cl-]",
    "log10 Ki": 3.13
  },
  {
    "input smiles": "COc1cc(CN2CCN(C(=O)c3ccccc3)CC2)c2cc3[n+](cc2c1O)CCc1cc2c(cc1-3)OCO2.[Cl-]",
    "log10 Ki": 2.76
  },
  {
    "input smiles": "COc1cc(CN2CCN(c3cccc(Cl)c3)CC2)c2cc3[n+](cc2c1O)CCc1cc2c(cc1-3)OCO2.[Cl-]",
    "log10 Ki": 2.40
  },
  {
    "input smiles": "COc1cc(Cn2c3ccccc3c3ccccc32)c2cc3[n+](cc2c1O)CCc1cc2c(cc1-3)OCO2.[Cl-]",
    "log10 Ki": 2.69
  },
  {
    "input smiles": "COc1ccc(N2CCN(Cc3cc(OC)c(O)c4c[n+]5c(cc34)-c3cc4c(cc3CC5)OCO4)CC2)c(OC)c1.[Cl-]",
    "log10 Ki": 3.20
  },
  {
    "input smiles": "COc1cc(CN2CCN(c3ccc(Cl)cc3)CC2)c2cc3[n+](cc2c1O)CCc1cc2c(cc1-3)OCO2.[Cl-]",
    "log10 Ki": 2.98
  },
  {
    "input smiles": "COc1cc(CN2CCOCC2)c2cc3[n+](cc2c1O)CCc1cc2c(cc1-3)OCO2.[Cl-]",
    "log10 Ki": 2.68
  }
]

---

# assay name: Cytotoxicity against MDCK cells incubated for 48 hrs assessed as reduction in cell viability by SRB assay
# Assay type: cell-based, Canis lupus familiaris
# stated conditions: dog
measurement label: log10 of CC50 at 48 h (log10 of the value in µg/mL)

[
  {
    "compound": "COc1cc(CN2CCN(C(=O)c3ccccc3)CC2)c2cc3[n+](cc2c1O)CCc1cc2c(cc1-3)OCO2.[Cl-]",
    "assay value": 2.63
  },
  {
    "compound": "COc1cc(CN2CCN(c3ccc(F)cc3)CC2)c2cc3[n+](cc2c1O)CCc1cc2c(cc1-3)OCO2.[Cl-]",
    "assay value": 1.86
  },
  {
    "compound": "COc1cc(CN2CCN(c3ccccn3)CC2)c2cc3[n+](cc2c1O)CCc1cc2c(cc1-3)OCO2.[Cl-]",
    "assay value": 2.27
  },
  {
    "compound": "COc1ccc2cc3[n+](cc2c1OC)CCc1cc2c(cc1-3)OCO2 [BERBERINE]",
    "assay value": 1.85
  },
  {
    "compound": "COc1cc(CN2CCN(c3cccc(Cl)c3Cl)CC2)c2cc3[n+](cc2c1O)CCc1cc2c(cc1-3)OCO2.[Cl-]",
    "assay value": 1.80
  },
  {
    "compound": "COc1cc(CN2CCCCC2)c2cc3[n+](cc2c1O)CCc1cc2c(cc1-3)OCO2.[Cl-]",
    "assay value": 3.21
  },
  {
    "compound": "COc1cc(CN2CCN(c3ccc([N+](=O)[O-])cc3)CC2)c2cc3[n+](cc2c1O)CCc1cc2c(cc1-3)OCO2.[Cl-]",
    "assay value": 3.14
  },
  {
    "compound": "COc1cc(CN2CCN(c3ccc(Cl)cc3)CC2)c2cc3[n+](cc2c1O)CCc1cc2c(cc1-3)OCO2.[Cl-]",
    "assay value": 2.68
  },
  {
    "compound": "COc1cc(CN2CCN(c3ccccc3[N+](=O)[O-])CC2)c2cc3[n+](cc2c1O)CCc1cc2c(cc1-3)OCO2.[Cl-]",
    "assay value": 2.36
  },
  {
    "compound": "COc1cc(CN2CCN(c3ccc(OC(F)(F)F)cc3)CC2)c2cc3[n+](cc2c1O)CCc1cc2c(cc1-3)OCO2.[Cl-]",
    "assay value": 2.49
  },
  {
    "compound": "COc1cc(CN2CCOCC2)c2cc3[n+](cc2c1O)CCc1cc2c(cc1-3)OCO2.[Cl-]",
    "assay value": 2.10
  },
  {
    "compound": "COc1cc(CN2CCN(c3ccc(C)cc3)CC2)c2cc3[n+](cc2c1O)CCc1cc2c(cc1-3)OCO2.[Cl-]",
    "assay value": 1.84
  },
  {
    "compound": "COc1cc(CN2CCN(c3ccc(F)cc3F)CC2)c2cc3[n+](cc2c1O)CCc1cc2c(cc1-3)OCO2.[Cl-]",
    "assay value": 1.87
  },
  {
    "compound": "COc1cc(CN2CCN(c3ccc(C)cc3C)CC2)c2cc3[n+](cc2c1O)CCc1cc2c(cc1-3)OCO2.[Cl-]",
    "assay value": 2.13
  },
  {
    "compound": "COc1cc(CN2CCN(c3ccc4ccccc4c3)CC2)c2cc3[n+](cc2c1O)CCc1cc2c(cc1-3)OCO2.[Cl-]",
    "assay value": 2.18
  },
  {
    "compound": "COc1cc(CN2CCN(c3ncccn3)CC2)c2cc3[n+](cc2c1O)CCc1cc2c(cc1-3)OCO2.[Cl-]",
    "assay value": 2.35
  },
  {
    "compound": "COc1cc(Cn2c3ccccc3c3ccccc32)c2cc3[n+](cc2c1O)CCc1cc2c(cc1-3)OCO2.[Cl-]",
    "assay value": 1.80
  },
  {
    "compound": "COc1cc(CN2CCN(c3ccccc3Cl)CC2)c2cc3[n+](cc2c1O)CCc1cc2c(cc1-3)OCO2.[Cl-]",
    "assay value": 2.60
  },
  {
    "compound": "COc1cc(CN2CCN(c3ccccc3F)CC2)c2cc3[n+](cc2c1O)CCc1cc2c(cc1-3)OCO2.[Cl-]",
    "assay value": 1.84
  }
]
